- PROTOCOL_DESCRIPTION: melting temperature; fluorescence melt of hairpins on a sequencing array, two-state fit, raised by 9.35 °C to match UV melts
- MEASUREMENT_CONTEXT: sodium 0.088 M
Provide the recorded Tm for the entries that follow.
Give your result in °C as a bare value.

Asked: I have this sequence here, GCAAATGGAAACATTCGC ((.((((....)))).)) , and I need its recorded Tm.
Given back: 38.4

Asked: Consider the sequence shown here: GGTGTCGGAAACGATACC (((.(((....))).))) What is its recorded Tm?
Given back: 54.4

Asked: Look up Tm for this sequence: GCCTGTGGAAACACAGAC (.(((((....))))).)
Given back: 42.6

Asked: Using the record for GACCCGGGAAACTGGGTC (((((.(....).))))) , report its Tm.
Given back: 59.2

Asked: Fill in the blank: the reported Tm of CGGGTTCGGAAACGACCG (((..(((....)))))) is ____.
Given back: 39.4

Asked: So what does the record say about Tm for GATCCAAGGGTGGATC ((((((....)))))) ?
Given back: 48.4
